Data provenance: patent US6825001B2

Biological target: wild-type AtzA protein (Pseudomonas sp., UniProt P72156)
Construct: made in house; host or cells: E. coli
Sequence (P72156 whole entry): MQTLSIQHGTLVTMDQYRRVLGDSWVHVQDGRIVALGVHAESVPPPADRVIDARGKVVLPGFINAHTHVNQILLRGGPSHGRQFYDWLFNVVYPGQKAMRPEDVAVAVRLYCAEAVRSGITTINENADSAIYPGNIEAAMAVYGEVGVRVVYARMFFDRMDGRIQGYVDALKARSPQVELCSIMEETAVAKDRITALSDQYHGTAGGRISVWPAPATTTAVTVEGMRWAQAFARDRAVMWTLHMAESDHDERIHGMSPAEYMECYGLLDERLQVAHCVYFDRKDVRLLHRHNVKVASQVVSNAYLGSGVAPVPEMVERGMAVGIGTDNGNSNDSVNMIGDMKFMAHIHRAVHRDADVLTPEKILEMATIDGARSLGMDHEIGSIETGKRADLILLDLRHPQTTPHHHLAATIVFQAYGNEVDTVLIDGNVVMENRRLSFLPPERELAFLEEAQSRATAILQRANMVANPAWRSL
Test: substrate range of wild-type AtzA protein
Type: biochemical, Pseudomonas sp. strain ADP
property_measured: degradation of substrate by wild-type AtzA protein (in words)

Solved entries:
molecule	recorded_measurement
CC(C)Nc1nc(N)nc(Cl)n1 [desethylatrazine]	acts on
Nc1nc(N)nc(N)n1 [MELAMINE, 2,4,6-triamino-s-triazine]	did not degrade
CCNc1nc(Cl)nc(NCC)n1 [SIMAZINE, 2-chloro-4,6-diethylamino-s-triazine]	acts on
CCNc1nc(N)nc(Cl)n1 [Desisopropylatrazine, 2-chloro-4-ethylamino-6-amino-s-triazine]	acts on
Nc1nc(N)nc(Cl)n1 [Desethyldesisopropylatrazine, 2-chloro-4,6-diamino-s-triazine]	did not degrade

Reported degradation of substrate by wild-type AtzA protein (in words) for CCNc1nc(Cl)nc(NC(C)C)n1 [atrazine] : what is it?
acts on
